test system: human APOE RNA; assay: Dose-dependent inhibition of human APOE RNA in HepG2 cells, electroporation, 50,000 cells per well, RT-PCR normalized to GAPDH (Example 4, Tables 8-10); format: cell-based; settings: HepG2 cells, electroporation, 24-hour treatment, 13 nM, Table 8
Strand notation (5' to 3'): a small letter for the sugar, then the base; units joined by * are phosphorothioate-linked, units joined directly phosphodiester-linked; [ ] holds rarer units or linkages, { } end groups; capitals alone tell only the bases. [ms] = mesyl phosphoramidate linkage; e = 2'-O-(2-methoxyethyl) (MOE); k = constrained ethyl (cEt); [5mC] = 5-methylcytosine; d = 2'-deoxy (DNA)
property_measured: APOE RNA (% UTC) 13 nM
Numeric answer only, unit % UTC assumed.

Record summary for 1778131: modified oligonucleotide complementary to human APOE RNA (eA*e[5mC]eTeTeGkG*dT*dG[ms]dA[ms]dA*dT*d[5mC]*dT*dT*dT*dA[ms]kTkT*eA*eA; antisense) [compound 1778131] : reported APOE RNA (% UTC) 13 nM = 117

###

system: human APOE RNA; assay: Dose-dependent inhibition of human APOE RNA in HepG2 cells, electroporation, 50,000 cells per well, RT-PCR normalized to GAPDH (Example 4, Tables 8-10); assay type: cell-based; conditions: 3,200 nM; HepG2, electroporation, 16-hour treatment
Strand notation (5' to 3'): a small letter for the sugar, then the base; units joined by * are phosphorothioate-linked, units joined directly phosphodiester-linked; [ ] holds rarer units or linkages, { } end groups; capitals alone tell only the bases. [ms] = mesyl phosphoramidate linkage; e = 2'-O-(2-methoxyethyl) (MOE); k = constrained ethyl (cEt); [5mC] = 5-methylcytosine; d = 2'-deoxy (DNA)
property_measured: APOE RNA (% UTC)
Numeric answer only, unit % UTC assumed.

Recorded APOE RNA (% UTC), per entry:
[[record]]
substance = "1757561: mixed MOE/cEt gapmer TTGGTGAATCTTTATTAA, sugar eeekkddddddddkeeee, linkages soossssssssssooss (eT*eTeGkG*kT*dG*dA*dA*dT*d[5mC]*dT*dT*dT*kAeTeT*eA*eA) [compound 1757561]"
target_desc = "human APOE RNA"
unit_of_measure = "% UTC"
value = 38

[[record]]
substance = "1766537 (eT*eTeGeGeT*dG[ms]dA[ms]dA[ms]dT*d[5mC]*dT*dT*dT[ms]dA*dT*kTkAeA*eA*e[5mC]; antisense) [Compound 1766537]"
target_desc = "human APOE RNA"
unit_of_measure = "% UTC"
value = 36

[[record]]
substance = "1757559: mixed MOE/cEt gapmer TTGGTGAATCTTTATTAA, sugar eeeekddddddddkeeee, linkages soossssssssssooss (eT*eTeGeG*kT*dG*dA*dA*dT*d[5mC]*dT*dT*dT*kAeTeT*eA*eA) [compound 1757559]"
target_desc = "human APOE RNA"
unit_of_measure = "% UTC"
value = 42

[[record]]
substance = "1757582 (eT*eTeGkGkT*dG*dA*dA*dT*d[5mC]*dT*dT*dT*dA*dT*eTeAeA*eA*e[5mC]; antisense) [Compound 1757582]"
target_desc = "human APOE RNA"
unit_of_measure = "% UTC"
value = 12


Attention now turns to another entry.
Record summary for 1757569 (eA*e[5mC]eTkTkG*dG*dT*dG*dA*dA*dT*d[5mC]*dT*dT*dT*kAeTeT*eA*eA; antisense) [Compound 1757569] : reported APOE RNA (% UTC) = 24

src = patent US20250353873A1
